Values compiled from the supplement of paper PMC3545927.

# subjectOfTest: furin, P09958
# Sequence (P09958 whole entry): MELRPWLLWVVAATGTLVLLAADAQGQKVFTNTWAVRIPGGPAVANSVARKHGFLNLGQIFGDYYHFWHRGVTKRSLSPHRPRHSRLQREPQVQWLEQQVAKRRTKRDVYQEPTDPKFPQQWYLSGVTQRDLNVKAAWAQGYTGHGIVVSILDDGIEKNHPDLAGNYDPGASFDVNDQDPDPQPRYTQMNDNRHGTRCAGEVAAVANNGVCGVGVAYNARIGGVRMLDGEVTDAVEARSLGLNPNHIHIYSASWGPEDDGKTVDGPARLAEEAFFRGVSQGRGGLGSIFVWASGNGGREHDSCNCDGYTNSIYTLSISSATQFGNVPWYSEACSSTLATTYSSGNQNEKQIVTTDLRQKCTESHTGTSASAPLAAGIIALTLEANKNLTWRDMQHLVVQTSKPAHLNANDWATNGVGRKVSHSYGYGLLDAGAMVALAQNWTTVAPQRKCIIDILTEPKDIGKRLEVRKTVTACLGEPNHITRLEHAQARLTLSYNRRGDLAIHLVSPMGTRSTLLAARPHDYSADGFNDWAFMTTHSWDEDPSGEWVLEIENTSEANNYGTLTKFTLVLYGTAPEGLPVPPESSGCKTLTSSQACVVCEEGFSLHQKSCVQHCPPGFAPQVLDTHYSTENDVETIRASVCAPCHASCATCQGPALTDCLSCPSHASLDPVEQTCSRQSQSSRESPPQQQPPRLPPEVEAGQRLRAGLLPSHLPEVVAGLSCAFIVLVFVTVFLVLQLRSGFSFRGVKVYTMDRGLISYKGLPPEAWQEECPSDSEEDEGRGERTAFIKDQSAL
# assayProcedure: furin cleavage Z-score vs untreated control; higher = more cleavage, active = 3.5 or more, inactive = 1 or less, 8 variable residues between constant flanks;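 note: purified furin at 1:10 enzyme:substrate in 50 mM HEPES pH 7.5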
# experimentalParameters: 7.5 min
The list shows a part of the results. How many sequences the whole screen found active is unknown.
Outcome field: choose from true (1) (active), false (0) (inactive)

Example results:
                  sequencetext  discretelabel
0  CAANRRDVRLAGNASASA [FS-322]      false (0)
1  CAEAMTRYSAAGNASASA [HC1541]      false (0)
2  CAESENKVVIAGNASASA [HC1283]      false (0)
3  CADLVVICESAGNASASA [HC1530]      false (0)
4  CASPSRTKRLAGNASASA [FS-870]       true (1)

[ask] Query: recorded result category for CARLVRPRRSAGNASASA [FS-952] in this test
[reply] true (1)

[ask] How about CAVIPTSGDVAGNASASA [HC873] ?
[reply] false (0)
